molecular target: human κ receptor (Homo sapiens, UniProt P41145); construct: expressed in transfected cells; experiment: Competitive binding assay, [9-3H]bremazocine, membranes of stably transfected HEK293 cells; conditions: single concentration; 20 μM
property: Receptor Affinity (relative to 100%) κ
Give bare numbers, in %.

As a guide, the following entries are already answered.
**Q:** Query (compound): `CC(C)(C)c1ccc(O)c(-c2nncn2-c2cccc(O)c2)c1` ; field requested: Receptor Affinity (relative to 100%) κ
**A:** 20

**Q:** Given the entry `COc1cccc(-n2cnnc2-c2ccc(C(C)(C)C)cc2)c1` , report its measured Receptor Affinity (relative to 100%) κ.
**A:** 18

**Q:** Quick one: Receptor Affinity (relative to 100%) κ of `COc1cccc(-n2cnnc2-c2cc(C(C)(C)C)ccc2OC)c1` ?
**A:** 27

Below are 2 compounds. Give each one its Receptor Affinity (relative to 100%) κ.
1. COc1cccc(-n2cnnc2-c2cccc(C(C)(C)C)c2)c1
2. CC(C)(C)c1cccc(-c2nncn2-c2cccc(O)c2)c1

**A:**
27
85

**Q:** Name the reported Receptor Affinity (relative to 100%) κ value associated with the compound `CC(C)(C)c1ccc(-c2nncn2-c2cccc(O)c2)cc1`
**A:** 48

----------
Biological target: murine μ opioid receptor (Mus musculus)
Construct: expressed in transfected cells
Assay: Competitive binding assay, [9-3H]bremazocine, membranes of stably transfected HEK293 cells
Conditions: single concentration; 20 μM
Description: Competitive Binding Assays. Human embryonic kidney (HEK) 293 cells (ATCC CRL, 1573) were cultured at 37° C. in Dulbecco's modified Eagle's medium supplemented with 10% fetal bovine serum, 100 units/ml penicillin and 100 μg/ml streptomycin sulfate. […] Cell membrane preparations were collected from the stable transfectants described above. […] Receptor binding data were analyzed by non-linear regression of saturation and competition curves using Prism 3.0 software (GraphPad Software, San Diego, Calif.). […]
Lab note: cut-off is 20%. Strictly less in Receptor Affinity (relative to 100%) μ is met. Exactly 20% or more is not met.

**Q:** For `COc1cccc(-n2cnnc2-c2cccc(C(C)(C)C)c2)c1` , is the recorded Receptor Affinity (relative to 100%) μ below the cut-off of 20%?
**A:** met

**Q:** Dear colleague, could you confirm whether Receptor Affinity (relative to 100%) μ of `CC(C)(C)c1cccc(-c2nncn2-c2cccc(O)c2)c1` falls below 20%? Thanks.
**A:** not met

**Q:** Below 20% on Receptor Affinity (relative to 100%) μ? Entry `CC(C)(C)c1ccc(O)c(-c2nncn2-c2cccc(O)c2)c1`
**A:** not met

**Q:** # TODO verify Receptor Affinity (relative to 100%) μ < 20% strictly for this molecule: `CC(C)(C)c1ccc(-c2nncn2-c2cccc(O)c2)cc1`
**A:** met

Kindly review the next molecule as well.
**Q:** Decide: Receptor Affinity (relative to 100%) μ of `COc1cccc(-n2cnnc2-c2ccc(C(C)(C)C)cc2)c1` strictly below 20%?
**A:** met

----------
system: murine δ opioid receptor; assay: biochemical; format: binding; details: ratio of receptor affinities δ to κ
I'd appreciate it if you could supply Selectivity for δ receptor (δ/κ) values for the items below.
Give bare numbers.

**Q:** // returns reported Selectivity for δ receptor (δ/κ) for input COc1cccc(-n2cnnc2-c2ccc(C(C)(C)C)cc2)c1 [Compound 4a]
**A:** 1.72

I would be grateful if you could provide Selectivity for δ receptor (δ/κ) for each of the following entries.
1. COc1cccc(-n2cnnc2-c2cccc(C(C)(C)C)c2)c1 [Compound 4c]
2. CC(C)(C)c1ccc(-c2nncn2-c2cccc(O)c2)cc1 [Compound 5a]
3. COc1cccc(-n2cnnc2-c2cc(C(C)(C)C)ccc2OC)c1 [Compound 4b]
4. CC(C)(C)c1cccc(-c2nncn2-c2cccc(O)c2)c1 [Compound 5c]

**A:**
0.07
0.44
0.30
0.46

----------
biological target: murine δ opioid receptor (Mus musculus, UniProt P32300); construct: expressed in transfected cells; assay: biochemical; type: binding; details: binding affinity for the δ opioid receptor, summary of Table 3
property: Ki

**Q:** For `CC(C)(C)c1cccc(-c2nncn2-c2cccc(O)c2)c1` , what is its reported Ki?
**A:** ~100 nM

----------
test system: murine δ opioid receptor; test: biochemical; type: binding; conditions: ratio of receptor affinities δ to μ
Give measured Selectivity for δ Receptor (δ/μ) for each item. Keep answers brief.
Numbers only.

Respectfully, I request Selectivity for δ Receptor (δ/μ) for each entry included below.
1. COc1cccc(-n2cnnc2-c2cc(C(C)(C)C)ccc2OC)c1 [Compound 4b]
2. CC(C)(C)c1cccc(-c2nncn2-c2cccc(O)c2)c1 [Compound 5c]
3. COc1cccc(-n2cnnc2-c2ccc(C(C)(C)C)cc2)c1 [Compound 4a]

**A:**
0.27
0.54
2.21

Here are 2 molecules. What values of Selectivity for δ Receptor (δ/μ) were reported for them?
1. CC(C)(C)c1ccc(-c2nncn2-c2cccc(O)c2)cc1 [Compound 5a]
2. COc1cccc(-n2cnnc2-c2cccc(C(C)(C)C)c2)c1 [Compound 4c]

**A:**
1: 1.17; 2: 0.11

----------
Let's go through some recorded pKi values for murine μ opioid receptor (Mus musculus, UniProt P42866) together.
Answers are plain numbers, as −log10 of the molar value.

**Q:** Record lookup: for murine μ opioid receptor (Mus musculus, UniProt P42866), what pKi belongs to `CC(C)(C)c1cccc(-c2nncn2-c2cccc(O)c2)c1` ?
**A:** 6.35

Consider now this further compound.
**Q:** // fetch murine μ opioid receptor (Mus musculus, UniProt P42866) pKi for `CN(C)c1nnc(-c2ccc(C(C)(C)C)cc2)n1-c1cccc(O)c1`
**A:** 5.40

----------
biological target: murine δ opioid receptor (Mus musculus, UniProt P32300); construct: expressed in transfected cells; test: biochemical; format: binding; settings: single concentration; 20 μM
property: Receptor Affinity (relative to 100%) δ
Give bare numbers, in %.

// solved cases for Receptor Affinity (relative to 100%) δ follow
**Q:** Which Receptor Affinity (relative to 100%) δ reading was recorded for the molecule `CC(C)(C)c1cccc(-c2nncn2-c2cccc(O)c2)c1` ?
**A:** 39

**Q:** I would be grateful if you could share the reported Receptor Affinity (relative to 100%) δ for `COc1cccc(-n2cnnc2-c2cccc(C(C)(C)C)c2)c1` .
**A:** 2

**Q:** Recorded Receptor Affinity (relative to 100%) δ for `COc1cccc(-n2cnnc2-c2cc(C(C)(C)C)ccc2OC)c1` , please?
**A:** 8

**Q:** I have this molecule here, `COc1cccc(-n2cnnc2-c2ccc(C(C)(C)C)cc2)c1` , and I need its recorded Receptor Affinity (relative to 100%) δ.
**A:** 31

More entries:
**Q:** Reported Receptor Affinity (relative to 100%) δ for `CC(C)(C)c1ccc(-c2nncn2-c2cccc(O)c2)cc1` : what is it?
**A:** 21

----------
I'd be grateful if you could share measured melting point for these entries.

**Q:** Consider the molecule `COc1cccc(-n2cnnc2-c2cccc(C(C)(C)C)c2)c1` and give its measured melting point.
**A:** 175 to 175.5 °C

**Q:** Query (molecule): `CC(C)(C)c1cccc(-c2nncn2-c2cccc(O)c2)c1` ; field requested: melting point
**A:** 242.5 to 243.5 °C

**Q:** Item under review: `COc1cccc(-n2cnnc2-c2ccc(C(C)(C)C)cc2)c1` . Reported melting point?
**A:** 118.2 to 118.8 °C

Would you kindly look at the next entry?
**Q:** What measured melting point goes with `COc1cccc(-n2cnnc2-c2cc(C(C)(C)C)ccc2OC)c1` ?
**A:** 119.5 to 120 °C
